Molecular target: Bovine lysyl oxidase (LOX) (Bos taurus, UniProt P33072)
Sequence (P33072 170-418): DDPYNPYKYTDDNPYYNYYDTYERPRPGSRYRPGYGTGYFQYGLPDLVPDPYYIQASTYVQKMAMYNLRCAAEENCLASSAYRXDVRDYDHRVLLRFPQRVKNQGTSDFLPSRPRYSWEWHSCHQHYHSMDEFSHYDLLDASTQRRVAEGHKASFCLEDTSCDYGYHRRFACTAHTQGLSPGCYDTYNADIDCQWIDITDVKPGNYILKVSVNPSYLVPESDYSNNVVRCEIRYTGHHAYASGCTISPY
pIC50: −log10 of the molar value.

molecule: NCc1ccnc(S(=O)(=O)N2C[C@@H](C(=O)N3CCS(=O)(=O)CC3)C[C@@H](N3CCCCC3)C2)c1 (racemic) [Example 148, 2,2,2-trifluoroacetate]
pIC50: 4.52 to 6.00

molecule: NCc1cccc(S(=O)(=O)[C@@H]2C[C@H](C3CCCCC3)CN(C(=O)N3CCS(=O)(=O)CC3)C2)c1 (racemic)
pIC50: < 4.52

molecule: NCc1ccnc(S(=O)(=O)N2C[C@@H](C(=O)N3CCS(=O)(=O)CC3)C[C@@H](N3CCCCC3=O)C2)c1 (racemic) [Example 187, 2,2,2-trifluoroacetate]
pIC50: 4.52 to 6.00

molecule: NCc1cccc(S(=O)(=O)N2C[C@@H](C(=O)N3CCS(=O)(=O)CC3)C[C@@H](C(F)(F)F)C2)c1 (racemic) [Example 99, 2,2,2-trifluoroacetate]
pIC50: < 4.52

molecule: NCc1cc(S(=O)(=O)N2C[C@H](C(=O)N3CCS(=O)(=O)CC3)C[C@@H](c3ccccc3)C2)ccn1 (racemic) [Example 130T, 2,2,2-trifluoroacetate]
pIC50: 4.52 to 6.00
